Biological target: Potassium voltage-gated channel subfamily KQT member 1 (Homo sapiens)
Assay: KCNQ1 potassium channel inhibitors, confirmation, cell-based, Tl flux, duplicate (AID 588353)
Details: KCNQ1 cell line, FluxOR thallium flux fluorescence, at 10 µM
The list shows a part of the results. Active and inactive are the calls of the source.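 The calls were made as follows: active = primary screen active, with duplicate mean exceeding buffer control mean plus 3 SD of buffer wells (cut at about 28% in these data); inactive = the rest.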
Tick one outcome: True (active), False (inactive)

Cn1nc(-c2ccc(Cl)cc2)c2cc(C(=O)NCc3ccco3)sc21: True
O=C1CCCN1CCCNC(=S)Nc1ccc(F)c(Cl)c1: True
Cc1cc(C)cc(N(CC(=O)N2CC=C(c3ccccc3)CC2)S(=O)(=O)c2c(C)noc2C)c1: True

Enquiry: Would you mind telling me which call this test gave S=C(NCCCc1ccccc1)Nc1ccc(Br)cc1 ?
Return: True

Enquiry: Would you mind telling me which call this test gave CCOC(=O)c1cnc(SC)nc1Sc1ccc(Cl)cc1Cl ?
Return: True

Enquiry: Would you mind telling me which call this test gave COc1ccc(Nc2ncnc3sc(-c4ccccc4)cc23)c(OC)c1 ?
Return: True

Enquiry: Would you mind telling me which call this test gave Cc1nc(N2CCN(c3ccccn3)CC2)c2c(C)c(C(=O)Nc3ccc(F)c(Cl)c3)sc2n1 ?
Return: True

Enquiry: Would you mind telling me which call this test gave Cc1ccc(N2CCN(S(=O)(=O)c3ccc(F)cc3)CC2)c(C)c1 ?
Return: True

Enquiry: Would you mind telling me which call this test gave CCOC(=O)C1CCN(c2ncnc3c2oc2ccc(Br)cc23)CC1 ?
Return: True

Enquiry: Would you mind telling me which call this test gave CSc1nccc(NC(=O)c2ccc(C(C)(C)C)cc2)n1 ?
Return: True

Enquiry: Would you mind telling me which call this test gave Cc1cccc(N2CCN(C(=O)c3cnn4c(C(F)F)cc(-c5ccccc5)nc34)CC2)c1C ?
Return: True

Enquiry: Would you mind telling me which call this test gave Cc1cc(Br)ccc1NC(=O)c1cnc(N2CCN(c3ccccn3)CC2)c2ccccc12 ?
Return: True
